Tested on: MCF7
experimental-protocol: NCI tumour cell line growth inhibition, 48 h
The source made the active and inactive calls. Rule as the data show it: active = GI50 up to about 1.1 µM and inactive = higher.
metric: GI50

smiles	metric	reported-result
CC(C)Oc1cccc(N2C(NCc3c[nH]c4ccccc34)=Nc3ccncc3S2(=O)=O)c1	GI50	18.4 µM (inactive)
C[n+]1c2ccccc2c(C(=O)Nc2ccc(S(=O)(=O)Nc3ncccn3)cc2)c2ccccc21	GI50	> 100 µM (inactive)
Nc1nc(-c2ccccc2)c(Cl)c(-c2cc(Cl)ccc2O)n1	GI50	2.04 µM (inactive)
Cc1nc(-c2ccccc2)c(-c2ccccc2)s1	GI50	25.3 µM (inactive)
O=C(O)CCCOc1cc(-c2ccccc2F)nc2cc3c(cc12)OCO3	GI50	5.35 µM (inactive)
